Test system: A549 (non-small cell lung)
METHOD: In vitro cytotoxicity screen, alamar Blue assay
Type: cell-based
CONDITION CONTEXT: Homo sapiens, A549, 168 h
PROPERTY: pIC50
Bear in mind: pIC50 is minus log10 of a mol/L concentration; give just that figure.

Record request: pIC50 value, item O=c1[nH]cc(F)c(=O)[nH]1 [5-FU, 5-Fluorouracil, reference compound] 5.26

====

Tested on: MCF-7 (breast)
METHOD: In vitro cytotoxicity screen, alamar Blue assay
Assay type: cell-based
CONDITION CONTEXT: Homo sapiens, MCF7, 168 h, 7 days post exposure
Exercise: for every item that follows, state its recorded pIC50.
Remember the convention: pIC50 equals -log10 of concentration in molar.

Can you look up the measured pIC50 of COCc1cc(I)c(Oc2ccc(OC)cc2)c(I)c1 [BTO-966] for me? 5.15

Entry under review: COC(=S)c1cc(I)c(Oc2ccc(OC)cc2)c(I)c1 [BTO-967] . Reported pIC50? 6.00

Value lookup for pIC50; key = COc1ccc(Oc2c(I)cc(C=O)cc2I)cc1 [BTO-964] 5.62

So what's the measured pIC50 for this one? COC(=O)c1cc(I)c(Oc2ccc(OC)cc2)c(I)c1 [BTO-956] 5.30
